- assay: yeast display, Sf9 membrane polyspecificity reagent, FACS + sequencing; frameworks hold sequencing errors

ordered-residues	polyreactivity (PSR sort gate)
QVQLVESGGGLVQAGGSLRLSCAASGRIFFDYAMGWYRQAPGKERELVAAISSGGSRTYYADSVKGRFTISRDNAKNTVYLQMNSLKPEDTAVYYCAADSTVYQDEYWGQGTQVTVSS	high polyreactivity
QVQLVESGGGLVQAGGSLRLSCAASGRIFSRNAMGWYRQAPGKERELVAAISRRGGSTSYADSVKGRFTISRDNAMNTVYLQMNSLKPEDTAVYYCAAEDEYYCTRGYWYSRYDYWGQGTQVTVSS	high polyreactivity
QVQVVESGGGLVQAGGSLRLSCAAYGRTISAYAMGWYRQAPVKERELVARITRYGGPTYYADSVKGRFTISRDYAKYTDYLQMNSLKAEVTAVDYCAARKYHLRTAYVYWGQGTEVTVSS	low polyreactivity
QVQLVESGGGLVQAGGSLRLICAAYGGIFISYAMGWYRQAPWKERELVAAINYSGGSTNYADSVKGRFTLSRDNAKNTVYLQMNSLKPEDTAVYYCAARSTARYGYWGQGTQVTVSS	low polyreactivity
QVQLVDSGGGLVQAGVSLRISCAASGIIIRYYGMGWYRQAPGKERELVARIRWTGGSTYYADSVKGRFTISRYNAKNTVYLQMNSLKQEETAVYYCAADIWQYSRIANSHPYDYWGQGTQVTVSS	low polyreactivity

====

- assay: yeast display, Sf9 membrane polyspecificity reagent, FACS + sequencing; frameworks hold sequencing errors

ordered-residues	polyreactivity (PSR sort gate)
QVHLVESGGGLVQAGGSLRLSCAASGLTFIPNAMGWYRQAPGKERELVAAISGTGGSTYYADSVKGRFTISRDNAKNTVYLQMNRLKPEDTAVYYCAARRRYKSGYWGQGTQVTVSS	high polyreactivity
QVQLVESGGGLVQAGGSLRLSCAASGSTLTYYVMGWSRQAPGKERELVAAITDSGGGTYYADSVKGRFTISRDNAKNTVYLQMNSLKPEDTAVYYCNAYYPYGLASFYYWGQGTQVTVSS	low polyreactivity
HVQLVESGGGLVQAGGSLRLSCAACGSTFRRYTMGWYIQAPGKDRELVAAITWSGGSTYYADSVKGRFTISRDNAKNTVYLQMNSLKPEDTAVYYCAADRPYHTREYYYWGQGSQVTVSS	low polyreactivity
QVQLVESGGGLVQAGGRLRLSCAASGSISGYYAMGWYRQAPGKERELVASIRYTGARTYYADSVKGRFTISRDNAKNNVYLQMNSLKPEDTAVYYCAADVKRDRVWGGDYWGQGTQVTVSS	low polyreactivity
QVQVVESGGGLVQAGGSLRLSCAASGSICHVNAMGWYRQAPGKERELVADISKRGASTYYADSVKGRFTISRDNAKNTVYLQMNSLKPEDTAVYYCAARVVTPRRQWYTYDYWGQGTQVSVSS	high polyreactivity

====

- assay: yeast display, Sf9 membrane polyspecificity reagent, FACS + sequencing; frameworks hold sequencing errors

ordered-residues	polyreactivity (PSR sort gate)
QVQLVESGGGLVQAGGSLRLSCAASGIIFLGYVMGWYRQAPGKERELVAAISSSGGRTYYADSVKGRFTISRDNAKNTVYLQMNSLKPEDTAVYYCATRTLQPGYTYPRYYWGQGTQVTVSS	high polyreactivity
QGQLVESGGCLVQAGGSLRLSCAASGIIFWSYAMGWYRQAPGKERELVAAISRRGGSTSYADSVKGRFTISRDNAKTTVYLQMNSLKPEDTAVYYCAADRYFNPKSYSTEFDYWGQGTQVTVSS	high polyreactivity
QVQLVESGGGLVQAGGSLRLSCAASGRISLSNAMGWYRQAPGKEREFVAAITKRSDRTYYADSVKGRFTISRDNAKNTVYLQMNSLKPEDTAVYYCAAKPLFGTRDEYWGQGTQVTVSS	low polyreactivity
QVQRVESGGGLVQAGGSLRLSCAASGLTFVYYAMGWYRQAPGKERELVAAISESGTSTYYADSVKGRFTISRDNAKNTVYLQMNSLKPEDTAVYYCAAKDSYYEMDYWGQGTQVTVSS	high polyreactivity
QVQLVESGGGLVQAGGSLRLSCAASGSIFGVNAMGWYRQAPGKERELVATISASGGSTYYADSVKGRFTISRDNAKNTVYLQMNSLKPEDTAVYYCATVVSPSPEMDYWGQGTQVTVSS	low polyreactivity
QVQLVESGGGLVQAGGSLRLSCAASGIIFYGYVMGWYRQAPGKERELVATITSSGGSTYYADSVKGRFTISRDNAKNSVYLQMNSLKPEDTAVYYCAADYYYGAWVRHDYWGQGTQVTVSS	low polyreactivity
QVRLIESGGGLVQAGGSLRLSCAASGFTFFGNAMGWYRQAPGKERELVASISGSGTRTYYADSVKGRFTISRDNAKNTVYLQMNSLKPEDTAVYYCAARGSYSHGINYYWGQGTQVTVSS	high polyreactivity
QVKLVESGGGLVQAGGSLRLSCADSGSIFWTYAIVWYRHAPGKERELVAAINSSDGTYYADSVKGRFTISRDNAKNTVYLQMNSLKPEDTAVYYCNADRDALFGYDYDYWGQGTQVTVSS	low polyreactivity
QVQLVESGGGLVQAGGSLRLSCAASGFIISRNAMGWYRQAPGKERELVAAIRTRTGSTYYADSVKGRFTISRDNAKNTVYLQMNSLKPEDTAVYYCNAYPYVNGRYGSWGQGTQVTVSS	high polyreactivity
QVQLVESGGGLVQAGGSLRLSCAASGSIFIYNAMGWYRQAPGKERELVAAISSSGGSTYYADSVKGRFTISRDNAKNTVYLQMNSLKPEDTAVYYCAARTYYVRVLGGRPGMDYWGQGTQVTVSS	low polyreactivity
QVQLEESVGGLVQAGGSLRLICAASGSIFSSYAMGWYRQAPGKERELVATISKRGGITSYADSVKGRFTISRDNAKNTVYLQMNSLKPEDTAVYYCAADSWFSYRGPLYYWGQGTQVTVSS	high polyreactivity
QVQLEESGGGLVQAGGSLRLSCAASGSTFPPYEMGWYRQAPGKERELVAAISGSGGSTNYADSVKGRFTISRDHAKNTVYLQMNSLKPEDNAVYRDYWGQGTQVTVSS	low polyreactivity
QVQLVESGGGLVQAGGSHRLSCAASGRIFVYYPRGWYRQAPGIETELVAAINAGRSTNYADSVKGRFTNSRDNAKNNVYLQMNSLKLQDTAVYFCAAVRRSRYSYRGYYWGQGTQVTVSS	high polyreactivity
QVQLVESGGGLVQAGGSLRLSCAASGRIFTYNAMVWYRQAPGKERELVAVITSGGSTYYADSVKGRFTISRDNAKNTVYLQMNSLKPEDTAVYYCAARVWGSSQYYYWGQGTQVTVSS	low polyreactivity
QVQLVESGGGLVQAGGSLRLSCAASGLTIWRYAMGWYIQAPGKERDLLAAISRSGIRTYYADSVKGRFTISRDTAKITVYLQMNSLKPEDTAVYYCAADSNAYITGRDYWGQVTQVTVSS	high polyreactivity
QVQLVESGGGLVQAGGSLRLSCAASGFTLLTYVMGWYRQAPGKERELVAAISKSGSRTYYADSVKWRFTISRDNAKNTVYLQMNRLKPVDTPVYYCAADTSAYRYDYWGQGTQVTVSS	high polyreactivity
QVELVESGGGLVQAGGSLRLSCAASGRISYLYTMGWYRQAPGKERELFAASRWRDGSTYYADSVKGRFTISRDNAKTTVYLQMNSLKPEDTAVYFCGATPVGFYWYDYWGQGTQVTVSS	low polyreactivity
QVQLVESGGGLVQAGGSLRLSCAASGFTIHYNAMGWYRQAPGKERELVATISKSAGITSYADSVKGRFTISRDNAKNTVYLLMNSLKPEDTAVYYCAADKSYRRVYYWGQGTQVTVSS	low polyreactivity
QVQLVESGGGLVQAGGSLRLSCAASGSIFVSNAMGWYRQAPGKEREFDAGITRRGGRTYYADSVKGRFTISRDNAKNTVYLQMNSLKPEDTPVYYCAAKSTTSRFDYWGQGTQVTVSS	high polyreactivity
QVHLVESGGGLVQAGGSLRLSCAASGFIFHSYAMGWYRQAPGKERELVASISRGGGSTYYADSVKGRFTISRDNAKNTVYLQMNSLKTEDTAVYYCNAVWRSNSRFDYWGQGTQVTVSS	high polyreactivity
QVQLVESGGGLVQAGGSLRLSCAASGSIFGDYAMGWYRQAPGKERELVAAIRYIGVSTYYADSVKGRFTISRDNAKNTVYLQMNSLKPEDTAVYYCAAEVYYEYYYWRYYWGQGTQVTVSS	high polyreactivity

====

- assay: yeast display, Sf9 membrane polyspecificity reagent, FACS + sequencing; frameworks hold sequencing errors

ordered-residues	polyreactivity (PSR sort gate)
QVQLVESGGGLVQAGGSLRLSCAASGFIFFAYAMGWYRQAPGKERELVAAISSSGTRTYYADSVKGRFTISRDNAKNTVYLQMNSLKPEDTAVYYCARYIPVYTREREYNYWGQGTQVTVSS	high polyreactivity
QVHLVESGGGLVQAGGSLRLSCAASGRIFGTYVMGWYRQAPGKERELVARITGGGSTNYADSVKGRFTISRDNAKNTVYLQMNSLKPEDTAVYYCARDYGPYLSPENPAPMDYWGQGTQVTVSS	low polyreactivity
QVQLVESGGGLVQAGGSLRLSCAASGSIFVPYAMGWYRQAPGKERELVAAISSRGGRTYYADSVKGRFTISRDNPKNTVYLQMNSLKPEDTAVYYCNKTAGSHIPRLEYWGQGTQVTVSS	low polyreactivity
QVQLVESGGGLVQAGGSLRLSCAASGITFYVYAMGWYRQPPGTERDLVAAISRRGGSTSYADSVKGRFTISRDTAKNTVYLEMNSLKPEDTAVDYCAAGPFYGGIVRRYDYWGQGTQVTVSS	low polyreactivity
QVQLVESGGGLVQAGGSLRLSCAASGSTFYAYVMGWYRQAPGKERELVAAIRSSGGRTYYADSVKGRFTISRDNAKNTLYLQMNSLKPEDSAVYYCAKAIWATRQYLRFTDYDYWGQGTQVTVSS	high polyreactivity
QVQLVESGGGLVQAGGSLRLSCAASGGTFSKYAMGWYRQAPGKEREFVAAITVSGGGTYYADSVKGRFTISRDNAKNTVYLQMNSLKPEDTAVYYCAADLGWTASDYWGQGTQVTVSS	low polyreactivity
QVQLVESGGGLVQAGGSLRLSCAASGGIFHNYAMGWYRQAPGKERELVAAITTSDGSTYYEDSVKGRFTISRDIAKNTVYLEMNSLKPEDTAVYYCNAEYLYTVYFDDGGFIMDYWGQGTQVTVSS	low polyreactivity
QVQLVESGGGLVQAVGSHRLSCAASGFIFTSYAMGCYRQAPGKERELVAAITRSGGRTYYADSVKGRFTISRDNAKNTVYLQMNSLKPEDTAVYYCAAVTFYQSPARGYWGQGTQVTVSS	high polyreactivity
QVQLVESGGGLVQAGGSLRLSCAASGSTFAYNDMGWYRQAPGKERDLVADIRYGGNTNYADSVKGRFTISRDNAKNTDYFQMNSLKPVDTSVYYCATDGYRSDVYHPDYRYDYWGQCTQVTVSS	low polyreactivity
QVQLVESGGGIVQAGCSLRFSCAASGGTFGYYTLGWYRQAPGKERQLVAAISSGGGTDYADSVKGRFTISRDNAKNTVSLQMNSLKAEDTAVYYCNAQWLEWHYVFLPSYTMDYWGLGTQVTVSS	low polyreactivity
QVQLVESGGGLVQAGGSLRLSCAASGSIFGWYAMGWYRQAPGKERELVATISSGGGNTYYADAVKGRFTISRDNAKNTVYLQMNSLKPEDTAVYYCNASPGPDSRLAEFDYWGQGTQVTVSS	low polyreactivity
